Target: T1, recombinant biotinylated CD71 extracellular domain (Sino Biologics) with an N-terminal 6His tag (human, UniProt P02786 89-760, biotinylated (sites not given))
T1 construct: extracellular domain; also called hCD71; huCD71
T1 sequence (P02786 other isoform, or with tags, fused parts or gaps): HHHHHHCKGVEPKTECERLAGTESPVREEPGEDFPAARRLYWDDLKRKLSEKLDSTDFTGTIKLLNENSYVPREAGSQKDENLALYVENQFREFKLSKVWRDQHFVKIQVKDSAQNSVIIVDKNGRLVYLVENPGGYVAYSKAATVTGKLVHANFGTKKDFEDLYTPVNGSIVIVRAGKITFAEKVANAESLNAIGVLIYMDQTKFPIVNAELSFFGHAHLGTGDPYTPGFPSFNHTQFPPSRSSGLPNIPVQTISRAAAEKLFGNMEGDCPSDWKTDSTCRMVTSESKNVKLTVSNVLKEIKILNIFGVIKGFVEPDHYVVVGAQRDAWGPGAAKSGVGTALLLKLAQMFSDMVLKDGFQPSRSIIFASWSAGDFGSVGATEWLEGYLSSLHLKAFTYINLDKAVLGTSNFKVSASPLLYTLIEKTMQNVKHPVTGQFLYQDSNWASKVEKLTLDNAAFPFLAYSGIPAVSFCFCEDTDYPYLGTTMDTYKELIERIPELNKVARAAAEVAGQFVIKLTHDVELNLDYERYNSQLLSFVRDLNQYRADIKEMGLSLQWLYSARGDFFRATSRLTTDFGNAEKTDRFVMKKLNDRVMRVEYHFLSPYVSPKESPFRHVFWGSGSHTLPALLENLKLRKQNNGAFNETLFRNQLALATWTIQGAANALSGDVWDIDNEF
Assay: screening ELISA
parameter: hCD71

Guide cases for hCD71, answers given:
| binder | hCD71 |
| --- | --- |
| SEQ ID NO 170 (designed binder, FN3 domain) MLPAPKNLVVSRVTEDSARLSWTAPDAAFDSFFIGYPEYPATGEAIVLTVPGSERSYDLTGLKPGTEYFVDINGVKGGSLSYPLSAIFTT | 982000 |
| SEQ ID NO 307 (designed binder, FN3 domain) MLPAPKNLVVSRVTEDSARLSWTAPDAAFDSFPITYSEPAHYGEAIVLTVPGSERSYDLTGLKPGTEYHVGIMGVKGGVFSSPLSAIFTT | 2.19e+06 |

Query: hCD71; subject: SEQ ID NO 253 (designed binder, FN3 domain) MLPAPKNLVVSRVTEDSARLSWTAPDAAFDSFTIEYWETIGGGEAIVLTVPGSERSYDLTGLKPGTEYYVGIYGVKGGWWSRPLSAIFTT
2.8e+06

So what's the measured hCD71 for this one? SEQ ID NO 107 (designed binder, FN3 domain) MLPAPKNLVVSRVTEDSARLSWTAPDAAFDSFFIQYTESHWVGEAIVLTVPGSERSYDLTGLKPGTEYAVPIEGVKGGDSSTPLSAIFTT
420000

Which hCD71 is reported for this binder? SEQ ID NO 241 (designed binder, FN3 domain) MLPAPKNLVVSRVTEDSARLSWTAPDAAFDSFNIYYYEWFVSGEAIVLTVPGSERSYDLTGLKPGTEYFVDIDGVKGGYRSRPLSAIFTT
2.7e+06

Requested read-out: hCD71. Entry: SEQ ID NO 188 (designed binder, FN3 domain) MLPAPKNLVVSRVTEDSARLSWTAPDAAFDSFLIPYAETSPSGEAIVLTVPGSERSYDLTGLKPGTEYSVLIHGVKGGKLSLPLSAIFTT
2.67e+06

GET /values?readout=hCD71&item= SEQ ID NO 261 (designed binder, FN3 domain) MLPAPKNLVVSRVTEDSARLSWTAPDAAFDSFTIVYGEWGVPGEAIVLTVPGSERSYDLTGLKPGTEYDVWIEGVKGGDLSWPLSAIVTT
4.23e+06

Reported hCD71 for SEQ ID NO 133 (designed binder, FN3 domain) MLPAPKNLVVSRVTEDSARLSWTAPDAAFDSFPIVYGEAWVTGEAIVLTVPGSERSYDLTGLKPGTEYDVWIEGVKGGELSWPLSAIFTT : what is it?
4.28e+06

GET /values?readout=hCD71&item= SEQ ID NO 156 (designed binder, FN3 domain) MLPAPKNLVVSRVTEDSARLSWTAPDAAFDSFAIEYFENLGIGEAIVLTVPGSERSYDLTGLKPGTEYVVNIYGVKGGWLSSPLSAIFTT
1.03e+06

Values from patent US20210145976A1
